# test target: human KDR enzyme (cytoplasmic domain, GST fusion) (Homo sapiens, UniProt P35968)
# Construct: The cytoplasmic domain of the human KDR enzyme was cloned in a GST fusion form; GST
# Sequence (P35968 786-1356 limits assumed): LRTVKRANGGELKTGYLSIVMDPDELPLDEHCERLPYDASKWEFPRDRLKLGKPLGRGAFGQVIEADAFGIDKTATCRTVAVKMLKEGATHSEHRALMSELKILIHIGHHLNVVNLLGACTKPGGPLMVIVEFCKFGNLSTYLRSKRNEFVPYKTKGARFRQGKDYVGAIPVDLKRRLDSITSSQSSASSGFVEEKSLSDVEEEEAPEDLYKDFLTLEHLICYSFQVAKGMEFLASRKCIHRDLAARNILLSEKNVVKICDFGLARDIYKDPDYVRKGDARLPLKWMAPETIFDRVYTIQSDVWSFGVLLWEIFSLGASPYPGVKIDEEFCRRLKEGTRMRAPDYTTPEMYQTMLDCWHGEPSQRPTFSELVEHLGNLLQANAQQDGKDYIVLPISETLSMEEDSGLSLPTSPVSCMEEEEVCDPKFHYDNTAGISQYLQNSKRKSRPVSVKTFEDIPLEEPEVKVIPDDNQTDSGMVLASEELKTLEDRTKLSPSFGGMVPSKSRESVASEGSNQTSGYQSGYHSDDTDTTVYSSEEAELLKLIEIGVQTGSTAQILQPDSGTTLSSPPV
# assay details: Phosphorylation of substrate by the KDR enzyme in vitro, scintillation technique
# condition notes: 2 μM cold ATP, PLCγ SH2-SH3 substrate, 1 hour at 37° C.; read-out: KDR IC 50
For each entry below, report its IC50 value.
Dear colleague, please return just the value in µM, with no unit written.

So, CCCC(=O)Nc1[nH]cc(-c2ccc(NC(=O)Nc3cc(C(F)(F)F)ccc3F)cc2)c1C(N)=O [Example 5] ? Its IC50 was 0.042

So, CC(=O)Nc1[nH]cc(-c2ccc(NC(=O)Nc3ccc(OC(F)(F)F)cc3)cc2)c1C(N)=O [Example 21] ? Its IC50 was 0.019

So, CC(=O)Nc1[nH]cc(-c2ccc(NC(=O)Nc3ccc(C)c(C)c3)cc2)c1C(N)=O [Example 19] ? Its IC50 was 0.013

So, NC(=O)c1c[nH]cc1-c1ccc(NC(=O)Nc2cc(C(F)(F)F)ccc2F)cc1 [Example 1] ? Its IC50 was 6.47
